assay: BET inhibitor-based combinations targeting novel dependencies in MECOM-rearranged (r) AML: MV-4-11 cell line (AID 2202233); details: MV-4-11 AML viability, CellTiter-Glo luminescence, 48 h; series mostly up to 46 µM; note: nearly all actives have a fitted effect of over 45% in size
Results filed as inconclusive are left out. Activity calls are given as the source filed them. Calls come from the whole dose curve; as a rule, active = well fitted inhibition curve with a large enough effect; inconclusive = small, poorly fitted or top-dose-only effect; inactive = no such curve, though single readings can be large or run the other way.
Log the outcome using a class from active, inactive

Solved entries (count: 2):
CCn1c(-c2nonc2N)nc2cncc(CNC3CCNCC3)c21
active
NCCCCNCCCN
active

Please turn your attention to the following entry.
Assay outcome for C=C1C(=O)OC(CCCCCCCC)C1C(=O)O (stereo not drawn) : what was it?
inactive

----------
molecular target: Cellular tumor antigen p53 (Homo sapiens) (UniProt P04637); test: Primary qHTS for small molecule compounds that upregulate eGFP-tagged delta133p53alpha (in N-terminal) cells. (AID 2060322); conditions: NCI-H358 eGFP-delta133p53alpha fluorescence, 24 h; stronger effect = higher value;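 note: cells pre-induced with doxycycline then dosed without doxycycline; 0% = DMSO vehicle and 100% = reference activator; nearly all actives have a fitted effect of over 75% in size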
Sequence (P04637 whole entry, looked up): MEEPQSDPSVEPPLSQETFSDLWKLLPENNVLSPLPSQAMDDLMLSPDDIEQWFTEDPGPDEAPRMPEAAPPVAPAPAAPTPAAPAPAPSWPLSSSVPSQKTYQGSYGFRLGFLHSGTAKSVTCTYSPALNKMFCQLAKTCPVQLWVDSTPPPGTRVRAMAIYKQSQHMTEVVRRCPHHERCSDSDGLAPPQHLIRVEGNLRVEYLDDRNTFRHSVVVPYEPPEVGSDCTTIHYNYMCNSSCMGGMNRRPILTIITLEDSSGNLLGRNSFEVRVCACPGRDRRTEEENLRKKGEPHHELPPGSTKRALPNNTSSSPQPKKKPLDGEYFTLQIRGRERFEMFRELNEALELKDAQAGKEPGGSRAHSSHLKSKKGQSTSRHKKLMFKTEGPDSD
Records with an inconclusive call do not appear.
Assay readout: activation (%)
Report as a plain number; the unit % is understood.

// worked examples, activation included
CC1(C)[C@@H](O)CC[C@]2(C)[C@H]3CC=C4[C@@H]5C[C@](C)(C(=O)O)CC[C@]5(C)CC[C@@]4(C)[C@]3(C)CC[C@@H]12
7
CCNC(=O)N1CCCN(c2ccc(C(=O)NCCc3ccc(Cl)cc3Cl)cc2NC(=O)c2cccc(Cl)c2)CC1
1.91
O=C(NCC(=O)N1CCCC1)Nc1ccc2ccccc2c1
-2.86
NS(=O)(=O)Nc1ncnc(OCCOc2ncc(Br)cn2)c1-c1ccc(Br)cc1
18.1
O=C(Nc1ccccc1)c1cc([N+](=O)[O-])ccc1Cl
24.9

// below: activation requested for another compound
Given "O=C(NCc1cccs1)c1cc2nc(-c3ccco3)cc(C(F)(F)Cl)n2n1" , respond with its activation.
0.477

This collection of values is drawn from PubChem BioAssay (NCATS).
